Reference source: PubChem BioAssay (NCI)

- System: DMS 273 small cell lung
- procedureSummary: NCI tumour cell line growth inhibition, 48 h
property: TGI (µM)
# output: bare number, implied unit µM

CCCCCCCCCCCC[N+](CCCCCCCCCCCC)=C1SCCS1: 11.4

Consider the record given below.
QUERY: Tell me reported TGI for O=C(/C=C/c1ccc(Cl)c(Cl)c1)c1cccc2ccccc12 , tested with DMS 273 small cell lung.
RESULT: 14.7

---

# key: entry, value: TGI
- System: UACC-62 melanoma
- procedureSummary: NCI tumour cell line growth inhibition, 48 h

Solved entries:
CCOc1ccc(NC(=O)CCc2nnc(SC)o2)cc1: > 100 µM
C=C1[C@@H](O)O[C@H]2[C@H]1C[C@H](OC(C)=O)[C@]13C(=O)O[C@H]4C[C@](C)(O)[C@H]([C@H]41)C31C=C(C)[C@]2(O)O1: > 100 µM
COc1cc2c3c([nH]c2c(OC)c1OC)CCN(Cc1ccccc1)C3: > 100 µM
N#CC1(C#N)C(c2ccccc2)C=CC12OCCCO2 (stereo unspecified): > 100 µM
COc1cccc(Oc2ccccc2NC(=O)CNC(=O)c2cccc3ccccc23)c1: > 25 µM
COc1ccc(NC(=O)C(=O)/C=C(\O)c2ccccc2)cc1: > 10 µM

QUERY: Field request: TGI | item: CSc1ccc(C2=NN(C(C)=O)C(c3ccc(-c4ccc(Cl)cc4)o3)C2)cc1 (stereo unspecified)
RESULT: > 100 µM

QUERY: Request: Cc1cc(=O)c2c(O)cc3c(c2o1)CC=C(COC1OC(COC2OC(CO)C(O)C(O)C2O)C(O)C(O)C1O)CO3 (stereo unspecified)
RESULT: > 100 µM

---

- System: KM12 colon
- procedureSummary: NCI tumour cell line growth inhibition, 48 h
property: GI50

Solved entries:
CCC(=O)Nc1ccc(N2C(=O)/C(=C/c3ccc(OC)cc3)N=C2c2ccccc2)cc1: 3.65 µM
O=C1C(OCCOc2ccccc2)=C(OCCOc2ccccc2)C(=O)c2ccccc21: 4.71 µM

QUERY: Field request: GI50 | item: CC1c2ccccc2CCN1c1ccc(CO)c(Cl)c1 (stereo unspecified)
RESULT: 22.6 µM

QUERY: Request: c1cc(N2CCN(c3ccc(C4=NCCCN4)cc3)CC2)ccc1C1=NCCCN1
RESULT: > 42.1 µM

QUERY: Request: CCc1c(C)nc2sc3c(N)ncnc3c2c1C
RESULT: > 25 µM

QUERY: Request: COC(=O)c1cc(-c2ccc(OC)c(OC)c2)[nH]c1N/N=C/c1c(Cl)cccc1Cl
RESULT: 0.4 µM

---

# key: entry, value: TGI
- System: SK-MEL-2 melanoma
- procedureSummary: NCI tumour cell line growth inhibition, 48 h
# output: bare number, implied unit µM

COc1cccc(C(=O)C#Cc2cnc(OC)nc2OC)c1: 3.95
N[C@H](COCc1ccccc1)c1ccccc1: 49.8
CCCc1[nH]c2ccccc2c1-c1c(CCC)[nH]c2ccccc12: 35.7
CN(C)CCNC(=O)c1cccc2c(NC(CCC(N)=O)C(=O)O)c3ccccc3nc12 (configuration not stated): 25.4
C=CCc1cc(Nc2c3ccc(Cl)cc3nc3ccc(OC)cc23)cc(CN(CC)CC)c1O: 4.93

QUERY: Field request: TGI | item: C=C1CC[C@@H](C)[C@](C)(CCc2ccoc2)C/C=C\C=C/1C(=O)O
RESULT: 43.8

QUERY: Request: COc1ccc(Nc2ccc([N+](=O)[O-])cc2[N+](=O)[O-])cc1CN(CCCl)CCCl
RESULT: 5.66

QUERY: Request: CC(CO)(Nc1ccc([N+](=O)[O-])cc1[N+](=O)[O-])C(=O)O (configuration not stated)
RESULT: 55.4

QUERY: Request: CC1C=CC(OC(=O)C(C)(O)CCC(O)(C(=O)OC2CC(O)C(C(C)C)CC2(C)O)C(C)C)(C(C)C)CC1 (configuration not stated)
RESULT: 1.64

QUERY: Request: N/C(=N\OC(=O)c1ccccc1)C(Cc1ccccc1)C(=O)NOC(=O)c1ccccc1 (configuration not stated)
RESULT: 4.17
